assay: Cytotoxicity, tetrazolium dye assay, static HEL monolayers; assay type: cell-based, human; settings: human, static (confluent, serum-starved) HEL fibroblast monolayers
In this section we review reported CC50 at 72 h values for a set of compounds.
measured-endpoint: CC50 at 72 h

1) O=c1c(-c2ccc(O)cc2)coc2cc(O)cc(O)c12 > 200 µM
2) O=c1cc(-c2ccccc2)oc2cc(O)c(O)c(O)c12 > 100 µM
3) O=c1cc(-c2ccc(O)c(O)c2)oc2cc(O)cc(O)c12 > 200 µM
4) O=C(O)[C@H]1O[C@@H](Oc2cc3oc(-c4ccccc4)cc(=O)c3c(O)c2O)[C@H](O)[C@@H](O)[C@@H]1O > 400 µM
5) O=C1C[C@@H](c2ccc(O)cc2)Oc2cc(O)cc(O)c21 > 100 µM
6) O=c1c(-c2ccc(O)cc2)coc2cc(O)ccc12 > 200 µM
7) O=c1c(O)c(-c2ccccc2)oc2cc(O)cc(O)c12 > 400 µM
8) O=c1c(O)c(-c2ccc(O)c(O)c2)oc2cc(O)cc(O)c12 > 400 µM
9) O=c1cc(-c2ccc(O)cc2)oc2cc(O)cc(O)c12 > 100 µM
